Read-out: Cytochrome P450 (CYP24A1), CYP24A1 (gene 1591)
Test: LTEA_HepaRG_CYP24A1: Life Technologies and Expression Analysis (LTEA) Assay for Cytochrome P450 (CYP24A1) using HepaRG (AID 2283478)
Conditions: mRNA level, 48 h; actives raise or lower the signal
Calls of active or inactive are those of the source. The calls were made as follows: active = hit-call score of the fitted dose curve at least 0.9, where 1 is the maximum; inactive = score below 0.9.
Outcome codes: active, inactive

Compound: CCOP(=O)(OCC)Oc1nc(Cl)c(Cl)cc1Cl
Cat: inactive
--
Compound: C=CCOC(=O)C(C)(C)OC(=O)c1cc(-n2c(=O)cc(C(F)(F)F)n(C)c2=O)ccc1Cl
Cat: inactive
--
Compound: COC(=O)N(C(=O)N1CO[C@@]2(C(=O)OC)Cc3cc(Cl)ccc3C2=N1)c1ccc(OC(F)(F)F)cc1
Cat: inactive
--
Compound: CCNC(=O)NC(=O)C(C#N)=NOC
Cat: inactive
--
Compound: COP(=S)(OC)Oc1ccc([N+](=O)[O-])c(C)c1
Cat: active
--
Compound: Nc1c(Cl)c(F)nc(OCC(=O)O)c1Cl
Cat: inactive
--
Compound: CC(C)NC(=O)N1CC(=O)N(c2cc(Cl)cc(Cl)c2)C1=O
Cat: inactive
--
Compound: CO/N=C(/C1=NOCCO1)c1ccccc1Oc1ncnc(Oc2ccccc2Cl)c1F
Cat: inactive
--
Compound: Cc1c(COC(=O)[C@@H]2[C@H](/C=C(\Cl)C(F)(F)F)C2(C)C)cccc1-c1ccccc1
Cat: inactive
--
Compound: C=C(C)CN(CC)c1c([N+](=O)[O-])cc(C(F)(F)F)cc1[N+](=O)[O-]
Cat: inactive
--
Compound: CC1(C)C(C(=O)OC(C#N)c2cccc(Oc3ccccc3)c2)C1(C)C (stereo unspecified)
Cat: inactive
--
Compound: Nc1cnn(-c2ccccc2)c(=O)c1Cl
Cat: inactive
--
Compound: N#Cc1c(Cl)cccc1Cl
Cat: inactive
--
Compound: CCOC(=O)C(C)OC(=O)c1cc(Oc2ccc(C(F)(F)F)cc2Cl)ccc1[N+](=O)[O-] (stereo unspecified)
Cat: inactive
--
Compound: O=c1n(Cl)c(=O)n(Cl)c(=O)n1Cl
Cat: inactive
--
Compound: Cc1ccc(N=CN(C)C=Nc2ccc(C)cc2C)c(C)c1
Cat: inactive
--
Compound: CCC(C)n1c(=O)[nH]c(C)c(Br)c1=O (stereo unspecified)
Cat: inactive
--
Compound: Clc1cccc(C(Cl)(Cl)Cl)n1
Cat: inactive
--
Compound: N#Cc1c[nH]cc1-c1cccc2c1OC(F)(F)O2
Cat: inactive
--
Compound: N#CN=C1SCCN1Cc1ccc(Cl)nc1
Cat: inactive
--
Compound: COCC(=O)N(c1c(C)cccc1C)C(C)C(=O)OC (stereo unspecified)
Cat: inactive
--
Compound: COC(=O)NS(=O)(=O)c1ccc(N)cc1
Cat: inactive
--
Compound: CCN(CC)c1nc(C)cc(OP(=S)(OC)OC)n1
Cat: inactive
--
Compound: Cc1cc(C)nc(Nc2ccccc2)n1
Cat: inactive
--
Compound: CC(C)=CC1C(C(=O)OCc2coc(Cc3ccccc3)c2)C1(C)C (stereo unspecified)
Cat: inactive
--
Compound: CCOc1nc(F)cc2nc(S(=O)(=O)Nc3c(Cl)cccc3Cl)nn12
Cat: inactive

###

Read-out: UDP glucuronosyltransferase (UGT1A1), UGT1A1 (gene 54658)
Test: LTEA_HepaRG_UGT1A1: Life Technologies and Expression Analysis (LTEA) Assay for UDP glucuronosyltransferase (UGT1A1) using HepaRG (AID 2283538)
Settings: mRNA level, 48 h; actives raise or lower the signal
Active and inactive are the calls of the source. How the source made its calls: active means hit-call score of the fitted dose curve at least 0.9, where 1 is the maximum; inactive means score below 0.9.
Outcome codes: active, inactive

Compound: CC1(C)CCC(=Cc2ccc(Cl)cc2)C1(O)Cn1cncn1 (configuration not stated)
Cat: active

Compound: O=C(Nc1ccccc1-c1ccc(Cl)cc1)c1cccnc1Cl
Cat: inactive

Compound: CCN(CC)C(=O)C(C)Oc1cccc2ccccc12 (configuration not stated)
Cat: active

Compound: O=C1C2CC=CCC2C(=O)N1SC(Cl)(Cl)Cl (configuration not stated)
Cat: inactive

Compound: Cc1c(COC(=O)[C@@H]2[C@H](/C=C(\Cl)C(F)(F)F)C2(C)C)cccc1-c1ccccc1
Cat: active

Compound: CNC(=O)Oc1cccc2ccccc12
Cat: active

Compound: CCCCC(O)(Cn1cncn1)c1ccc(Cl)cc1Cl (configuration not stated)
Cat: active

Compound: CC1(C)C(C=C(Cl)Cl)C1C(=O)OC(C#N)c1cccc(Oc2ccccc2)c1 (configuration not stated)
Cat: active

Compound: COP(=S)(OC)Oc1ccc([N+](=O)[O-])c(C)c1
Cat: active

Compound: Cc1cnc(C2=NC(C)(C(C)C)C(=O)N2)c(C(=O)O)c1 (configuration not stated)
Cat: inactive

Compound: COCc1cnc(C2=NC(C)(C(C)C)C(=O)N2)c(C(=O)O)c1 (configuration not stated)
Cat: inactive

Compound: Nc1cnn(-c2ccccc2)c(=O)c1Cl
Cat: active

Compound: N#Cc1c[nH]cc1-c1cccc2c1OC(F)(F)O2
Cat: active

Compound: CCSC(=O)N1CCCCCC1
Cat: inactive

Compound: CNC(=O)N(C)c1nnc(C(C)(C)C)s1
Cat: inactive

Compound: CS(=O)(=O)c1cc(C(F)(F)F)ccc1C(=O)c1cnoc1C1CC1
Cat: inactive

Compound: COCC(C)N(C(=O)CCl)c1c(C)csc1C (configuration not stated)
Cat: active

Compound: CSC(=O)c1c(C(F)F)nc(C(F)(F)F)c(C(=O)SC)c1CC(C)C
Cat: active

Compound: CCOP(=O)(OCC)Oc1nc(Cl)c(Cl)cc1Cl
Cat: inactive

Compound: CC(C)=CC1C(C(=O)OCc2coc(Cc3ccccc3)c2)C1(C)C (configuration not stated)
Cat: active

Compound: CCNP(=S)(OC)O/C(C)=C/C(=O)OC(C)C (configuration not stated)
Cat: active

Compound: CCOP(=S)(OCC)Oc1nc(Cl)n(C(C)C)n1
Cat: active

Compound: CC(C)NC(=O)N1CC(=O)N(c2cc(Cl)cc(Cl)c2)C1=O
Cat: active

Compound: CC(C)Nc1nc(Cl)nc(NC(C)C)n1
Cat: active

Compound: Clc1nc(Cl)nc(Nc2ccccc2Cl)n1
Cat: inactive

Compound: Cc1cc(C)nc(Nc2ccccc2)n1
Cat: active

Compound: COC(=O)c1c(C(F)F)nc(C(F)(F)F)c(C2=NCCS2)c1CC(C)C
Cat: active

Compound: Cc1nc(N(C)C)nc(OC(=O)N(C)C)c1C
Cat: active

Compound: COP(=S)(OC)SCn1nnc2ccccc2c1=O
Cat: active

Compound: CCOc1cc(C(C)(C)C)ccc1C1COC(c2c(F)cccc2F)=N1 (configuration not stated)
Cat: active

Compound: CCCCC(C#N)(Cn1cncn1)c1ccc(Cl)cc1 (configuration not stated)
Cat: active

Compound: CC(C)N1C(=O)N(c2ccccc2)CSC1=NC(C)(C)C
Cat: active

Compound: CC(C)Oc1cccc(NC(=O)c2ccccc2C(F)(F)F)c1
Cat: active

Compound: CN/C(=N\[N+](=O)[O-])NCc1cnc(Cl)s1
Cat: active

Compound: C=C(C)CN(CC)c1c([N+](=O)[O-])cc(C(F)(F)F)cc1[N+](=O)[O-]
Cat: active

Compound: N#CN=C1SCCN1Cc1ccc(Cl)nc1
Cat: inactive

Compound: COCC(=O)N(c1c(C)cccc1C)C(C)C(=O)OC (configuration not stated)
Cat: inactive

Compound: CC(C)(C)C(=O)C(Oc1ccc(Cl)cc1)n1cncn1 (configuration not stated)
Cat: active

Compound: CN=C=S
Cat: inactive

Compound: COC(=O)NC(=S)Nc1ccccc1NC(=S)NC(=O)OC
Cat: active

Compound: CCCC(=NOCC)C1=C(O)CC(CC(C)SCC)CC1=O (configuration not stated)
Cat: active

Compound: CO/N=C(/C1=NOCCO1)c1ccccc1Oc1ncnc(Oc2ccccc2Cl)c1F
Cat: active

###

Assay: ACEA_AR_antagonist_AUC_viability: ACEA Biosciences xCELLigence Real-Time Cell Analysis on Androgen Receptor Antagonism for Viability (AID 2283776);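 also: 22Rv1 human prostate cancer cells growing on impedance electrode plates; area under impedance growth curve at 80 h after dosing as viability; hits lower the growth signal relative to DMSO meaning cytotoxicity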
Records with an inconclusive call do not appear. Activity calls are given as the source filed them. How the source made its calls: active means hit-call score of the fitted dose curve at least 0.9, where 1 is the maximum; inconclusive means response in the unintended direction; inactive means score below 0.9.
Outcome codes: label 1 (active), label 0 (inactive)

Compound: CCN(CC)c1nc(C)cc(OP(=S)(OC)OC)n1
Cat: label 1
--
Compound: CCOC(=O)C(C)OC(=O)c1cc(Oc2ccc(C(F)(F)F)cc2Cl)ccc1[N+](=O)[O-] (centres undefined)
Cat: label 1
--
Compound: CO/N=C(/C1=NOCCO1)c1ccccc1Oc1ncnc(Oc2ccccc2Cl)c1F
Cat: label 1
--
Compound: CS(=O)(=O)c1cc(C(F)(F)F)ccc1C(=O)c1cnoc1C1CC1
Cat: label 0

###

Read-out: Vascular cell adhesion molecule 1 (VCAM1), VCAM1 (gene 7412)
Test: BSK_4H_VCAM1: BioMAP Diversity Plus: 4H Assay for Vascular cell adhesion molecule 1 (VCAM1) Biomarker Activity (AID 2283033);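 as to Outcome: cell-surface VCAM-1 protein measured by ELISA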
Details: primary human endothelial cells (HUVEC); actives raise or lower the signal
Active and inactive are the calls of the source. The calls were made as follows: active = hit-call score of the fitted dose curve at least 0.9, where 1 is the maximum; inactive = score below 0.9.
Outcome codes: yes = active, no = inactive

Compound: CCOc1cc(C(C)(C)C)ccc1C1COC(c2c(F)cccc2F)=N1 (stereo not drawn)
Cat: yes

Compound: CCOC(=O)C(C)OC(=O)c1cc(Oc2ccc(C(F)(F)F)cc2Cl)ccc1[N+](=O)[O-] (stereo not drawn)
Cat: no

Compound: CCOP(=O)(OCC)Oc1nc(Cl)c(Cl)cc1Cl
Cat: yes
